Would you kindly list pKd for each of these binders?
Biological target: T1, EsCas13d, nuclease-dead (Eubacterium siraeum, UniProt B0MS50, R295A;H300A;R849A;H854A)
T1 sequence: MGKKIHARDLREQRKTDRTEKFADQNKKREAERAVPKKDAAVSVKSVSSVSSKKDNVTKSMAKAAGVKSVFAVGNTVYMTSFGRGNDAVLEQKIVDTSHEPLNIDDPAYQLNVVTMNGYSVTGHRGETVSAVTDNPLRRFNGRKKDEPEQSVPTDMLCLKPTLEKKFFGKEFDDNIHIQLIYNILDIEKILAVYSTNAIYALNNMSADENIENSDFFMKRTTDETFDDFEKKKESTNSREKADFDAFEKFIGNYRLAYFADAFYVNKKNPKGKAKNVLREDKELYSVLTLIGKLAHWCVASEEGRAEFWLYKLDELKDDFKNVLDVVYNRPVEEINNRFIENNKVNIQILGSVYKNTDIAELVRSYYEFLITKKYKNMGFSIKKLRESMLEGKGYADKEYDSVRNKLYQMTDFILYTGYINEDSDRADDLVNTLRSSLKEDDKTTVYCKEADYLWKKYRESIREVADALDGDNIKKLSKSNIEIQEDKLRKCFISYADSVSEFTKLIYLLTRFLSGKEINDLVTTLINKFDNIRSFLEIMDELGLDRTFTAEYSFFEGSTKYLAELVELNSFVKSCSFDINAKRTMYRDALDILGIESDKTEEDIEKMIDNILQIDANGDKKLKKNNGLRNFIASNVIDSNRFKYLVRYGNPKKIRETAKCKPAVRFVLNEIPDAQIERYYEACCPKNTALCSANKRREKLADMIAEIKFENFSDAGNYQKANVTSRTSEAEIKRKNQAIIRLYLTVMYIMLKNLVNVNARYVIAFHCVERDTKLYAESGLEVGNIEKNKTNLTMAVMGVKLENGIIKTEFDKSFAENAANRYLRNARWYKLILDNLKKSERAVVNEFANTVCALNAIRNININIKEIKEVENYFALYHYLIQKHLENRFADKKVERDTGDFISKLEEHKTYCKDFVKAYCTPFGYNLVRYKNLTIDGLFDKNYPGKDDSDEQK
Assay: crRNA (strand 1, pre-loaded); Mg2+; 40 mM Tris-HCl pH 7.5, 150 mM NaCl, 6 mM MgCl2, 1 mM DTT, 0.1% Tween-20, 0.2 mg/ml BSA; 25 C; 10 min per concentration, then washed
Details: tags: His6-TwinStrep-SUMO cleaved; N-terminal SNAP kept (SNAP-Surface 488); label: 3' end held by stalled T7 RNA polymerase
# pKd = -log10(concentration in molar units)

Recorded pKd of target 2 MT 5'PFS CAC 3'PFS ACA (mixed) RNA 1: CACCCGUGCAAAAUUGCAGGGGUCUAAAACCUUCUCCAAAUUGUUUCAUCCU RNA 2: GGGAAUGGAUCCACAUCUACGAAUUCCACAGGAUGAAACAAUUUGGAGAAGACAAGAUCGGAAGAGCACACGU , please.
8.60

Now this one: target 1 U8C,U19G (mixed) RNA 1: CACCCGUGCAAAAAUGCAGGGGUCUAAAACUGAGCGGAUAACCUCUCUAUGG RNA 2: GGGAAUGGAUCCACAUCUACGAAUUCGUACCAGAGAGAGGUUACCCGCUCACCGAGAUCGGAAGAGCACACGU
7.12

Now this one: target 1 MT 5'PFS UUA 3'PFS UGA (mixed) RNA 1: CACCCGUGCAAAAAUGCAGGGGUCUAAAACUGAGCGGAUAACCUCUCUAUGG RNA 2: GGGAAUGGAUCCACAUCUACGAAUUCUUACCAUAGAGAGGUUAUCCGCUCAUGAAGAUCGGAAGAGCACACGU
7.00

Now this one: target 2 MT 5'PFS ACG 3'PFS CCG (mixed) RNA 1: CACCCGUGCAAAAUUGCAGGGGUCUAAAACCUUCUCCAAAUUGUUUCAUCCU RNA 2: GGGAAUGGAUCCACAUCUACGAAUUCACGAGGAUGAAACAAUUUGGAGAAGCCGAGAUCGGAAGAGCACACGU
8.00

Now this one: target 2 MT 5'PFS CAU 3'PFS CUU (mixed) RNA 1: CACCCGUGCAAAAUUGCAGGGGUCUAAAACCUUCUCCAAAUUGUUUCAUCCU RNA 2: GGGAAUGGAUCCACAUCUACGAAUUCCAUAGGAUGAAACAAUUUGGAGAAGCUUAGAUCGGAAGAGCACACGU
8.34

Now this one: target 1 MT 5'PFS GUC 3'PFS UGU (mixed) RNA 1: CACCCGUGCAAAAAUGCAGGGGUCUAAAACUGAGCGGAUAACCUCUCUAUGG RNA 2: GGGAAUGGAUCCACAUCUACGAAUUCGUCCCAUAGAGAGGUUAUCCGCUCAUGUAGAUCGGAAGAGCACACGU
7.67

Now this one: target 1 insA 3' of 19,insA 3' of 2 (mixed) RNA 1: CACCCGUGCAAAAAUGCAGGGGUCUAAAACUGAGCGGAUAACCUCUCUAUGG RNA 2: GGGAAUGGAUCCACAUCUACGAAUUCGUACCAUAAGAGAGGUUAUCCGCUCAACCGAGAUCGGAAGAGCACACGU
7.70

Now this one: target 3 C1U,A5C (mixed) RNA 1: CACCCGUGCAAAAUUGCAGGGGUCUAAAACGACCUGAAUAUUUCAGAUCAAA RNA 2: GGGAAUGGAUCCACAUCUACGAAUUCGUUUUUGAUCUGAAAUAUUCCGGUUUGCAGAUCGGAAGAGCACACGU
7.22

Now this one: target 1 complement block 4-10 (mixed) RNA 1: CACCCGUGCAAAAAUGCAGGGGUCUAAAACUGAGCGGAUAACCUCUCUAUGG RNA 2: GGGAAUGGAUCCACAUCUACGAAUUCGUACCAUAGAGAGGUAUAGGCGUCACCGAGAUCGGAAGAGCACACGU
7.87

Now this one: target 1 C2A (mixed) RNA 1: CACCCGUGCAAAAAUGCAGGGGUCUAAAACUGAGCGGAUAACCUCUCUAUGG RNA 2: GGGAAUGGAUCCACAUCUACGAAUUCGUACCAUAGAGAGGUUAUCCGCUAACCGAGAUCGGAAGAGCACACGU
8.03

Now this one: target 1 MT 5'PFS GGG 3'PFS UAC (mixed) RNA 1: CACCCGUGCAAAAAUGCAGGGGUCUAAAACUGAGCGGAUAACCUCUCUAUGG RNA 2: GGGAAUGGAUCCACAUCUACGAAUUCGGGCCAUAGAGAGGUUAUCCGCUCAUACAGAUCGGAAGAGCACACGU
7.78

Now this one: target 1 MT 5'PFS CCU 3'PFS UUC (mixed) RNA 1: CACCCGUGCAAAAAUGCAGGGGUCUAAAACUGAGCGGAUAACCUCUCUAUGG RNA 2: GGGAAUGGAUCCACAUCUACGAAUUCCCUCCAUAGAGAGGUUAUCCGCUCAUUCAGAUCGGAAGAGCACACGU
7.49

Now this one: target 3 C1G,A5C (mixed) RNA 1: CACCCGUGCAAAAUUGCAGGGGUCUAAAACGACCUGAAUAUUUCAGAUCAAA RNA 2: GGGAAUGGAUCCACAUCUACGAAUUCGUUUUUGAUCUGAAAUAUUCCGGUGUGCAGAUCGGAAGAGCACACGU
7.08

Now this one: target 3 C6A (mixed) RNA 1: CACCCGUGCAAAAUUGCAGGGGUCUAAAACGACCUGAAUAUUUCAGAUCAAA RNA 2: GGGAAUGGAUCCACAUCUACGAAUUCGUUUUUGAUCUGAAAUAUUAAGGUCUGCAGAUCGGAAGAGCACACGU
7.44

Now this one: target 1 C2G,A18U (mixed) RNA 1: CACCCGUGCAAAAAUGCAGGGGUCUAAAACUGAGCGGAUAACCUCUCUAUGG RNA 2: GGGAAUGGAUCCACAUCUACGAAUUCGUACCAUUGAGAGGUUAUCCGCUGACCGAGAUCGGAAGAGCACACGU
7.77
